Target protein (sequence): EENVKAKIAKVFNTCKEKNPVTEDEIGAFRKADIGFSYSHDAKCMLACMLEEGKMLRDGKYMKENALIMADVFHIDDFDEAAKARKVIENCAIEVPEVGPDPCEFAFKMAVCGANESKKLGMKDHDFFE
pIC50: −log10 of the molar value.
MEASURED_PROPERTY: pIC50

CCCCCCC/C=C/C=O [(E)-2-decenal] : 5.14

---

STUDY_TARGET: H. halys OBP30 (Halyomorpha halys)
Sequence (A0A1P8P1N8 19-136): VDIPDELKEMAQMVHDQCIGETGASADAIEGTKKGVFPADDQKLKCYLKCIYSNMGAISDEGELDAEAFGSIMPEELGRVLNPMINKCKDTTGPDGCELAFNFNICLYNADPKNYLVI
PROCEDURE_TEXT: Fluorescence binding of probe 1-NPN to OBP (Scatchard)
CONDITION_DETAILS: dissociation constant of OBP30/1-NPN, 2 μM OBP, 50 mM Tris-HCl pH 7.4; read-out: KOBPx/1-NPN
pKd: −log10 of the molar value.
MEASURED_PROPERTY: pKd

c1ccc(Nc2cccc3ccccc23)cc1 [1-NPN, N-phenyl-1-naphtylamine] : 5.55
